procedure.text: osmotic lysis modulators in infected erythrocytes, primary screen, PSAC antagonist project, cell-based, P. falciparum Indochina, OD700, 3 h (AID 1156)
conditions: higher = more signal, called active from +8 up or from −8 down
Activity calls are given as the source filed them.

{"molecule": "COC(=O)[C@H](C)NC(=O)CCC1CC(OC(=O)NCCc2ccc(F)cc2)CC2(CCCC(COC(=O)NCCc3ccccc3OC)O2)O1 (some centres not stated)", "z-score": "0.209 (inactive)"}
{"molecule": "CC1(C)O[C@H]2O[C@H]([C@H](O)CON=C3[C@H]4CCn5c(=O)n(-c6ccccc6)c(=O)n5[C@H]4[C@H](O)[C@@H]4O[C@H]34)[C@H](O)[C@H]2O1", "z-score": "0.267 (inactive)"}
{"molecule": "C[C@H]1CC[C@H]2C(=O)N[C@H](Cc3ccccc3)C(=O)N2[C@@H]1c1ccccc1", "z-score": "-0.304 (inactive)"}
{"molecule": "C=CC[C@@H]1C=C[C@H](ON=C(C)CCN2CCCCc3nc(C)c(C)cc32)[C@@H](CO)O1", "z-score": "0.325 (inactive)"}
{"molecule": "O=C1C2=CC[C@H]3C(=O)N(C[C@@H]4CCCO4)C(=O)[C@H]3[C@H]2[C@H](O)[C@@H]2O[C@H]12", "z-score": "-0.2 (inactive)"}
{"molecule": "CCc1cc2c(nc1CC)CCN(CCC(C)=NOC[C@@H](C)[C@H](OCc1ccccc1)C(C)C)C2", "z-score": "0.513 (inactive)"}
{"molecule": "CCOC(=O)CCN1C(=O)[C@H]2[C@H]3[C@H](O)[C@H](O)CC(=NO[C@@H]4O[C@H](CO)[C@@H](O)[C@H](O)[C@H]4O)[C@@H]3CC[C@H]2C1=O", "z-score": "1.31 (inactive)"}
